experiment: in vitro; details: rat, rat liver microsomes
reported property: half-life

• Cc1ccc2c(C(C[N+](=O)[O-])c3cccs3)c(-c3ccccc3)[nH]c2c1 (stereo not shown) [Compound 5, reference compound] = ≤ 10 min

----------
assay: Mouse liver microsomal stability; assay type: in vitro ADME; conditions: mouse liver microsomes
reported property: half-life

• Cc1ccc2c(C(C[N+](=O)[O-])c3cccs3)c(-c3ccccc3)[nH]c2c1 (stereo not shown) [Compound 5, reference compound] = ≤ 10 min

----------
target: CB1 receptor (Homo sapiens, UniProt P21554); type: cell-based; settings: enhancement of CP 55,940-induced β-arrestin recruitment
Sequence (P21554 whole entry): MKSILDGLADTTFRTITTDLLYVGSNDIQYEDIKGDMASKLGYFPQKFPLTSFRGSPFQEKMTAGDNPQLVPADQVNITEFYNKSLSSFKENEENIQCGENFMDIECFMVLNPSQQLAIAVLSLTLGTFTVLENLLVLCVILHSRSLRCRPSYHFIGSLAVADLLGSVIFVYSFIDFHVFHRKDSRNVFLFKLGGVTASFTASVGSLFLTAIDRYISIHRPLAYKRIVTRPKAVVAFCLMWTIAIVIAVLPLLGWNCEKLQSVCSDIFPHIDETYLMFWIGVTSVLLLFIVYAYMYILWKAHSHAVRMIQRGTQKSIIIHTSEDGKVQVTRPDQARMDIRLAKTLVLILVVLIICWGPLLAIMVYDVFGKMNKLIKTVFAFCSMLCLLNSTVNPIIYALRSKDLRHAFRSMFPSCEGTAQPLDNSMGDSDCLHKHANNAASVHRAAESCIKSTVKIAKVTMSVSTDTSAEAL
reported property: CB1 PAM activity (in words)

* N#Cc1ccc2c(C(C[N+](=O)[O-])c3cccs3)c(-c3ccccc3)[nH]c2c1 (single isomer, unassigned; (-)) [(−)-8] | effectively pure PAMs
* N#Cc1ccc2c(C(C[N+](=O)[O-])c3cccs3)c(-c3ccccc3)[nH]c2c1 (single isomer, unassigned; (+)) [(+)-8] | effectively pure PAMs
